- APPLIED CONDITIONS: human, plasma, oral, estimated t1/2, across dose cohorts, multiple dosing
ENDPOINT LABEL: half-life

Task: Name the reported half-life value associated with the compound `CCc1nc(C(N)=O)c(Nc2ccc(N3CCC(N4CCN(C)CC4)CC3)c(OC)c2)nc1NC1CCOCC1`
Result: 45 to 159 h

* * *

- APPLIED CONDITIONS: human, plasma, oral, 200 mg, Tmax, Median (range), single dose (Day-2), n = 3
ENDPOINT LABEL: Tmax (h)
Supply the numeric figure in h, leaving out any unit text.

Task: Name the reported Tmax value associated with the molecule `CCc1nc(C(N)=O)c(Nc2ccc(N3CCC(N4CCN(C)CC4)CC3)c(OC)c2)nc1NC1CCOCC1`
Result: 5.2
